The reported measurements were obtained from ChEMBL document CHEMBL1140783.

Assay System: Calpain-1 catalytic subunit (Homo sapiens, UniProt P07384)
Sequence (P07384 whole entry): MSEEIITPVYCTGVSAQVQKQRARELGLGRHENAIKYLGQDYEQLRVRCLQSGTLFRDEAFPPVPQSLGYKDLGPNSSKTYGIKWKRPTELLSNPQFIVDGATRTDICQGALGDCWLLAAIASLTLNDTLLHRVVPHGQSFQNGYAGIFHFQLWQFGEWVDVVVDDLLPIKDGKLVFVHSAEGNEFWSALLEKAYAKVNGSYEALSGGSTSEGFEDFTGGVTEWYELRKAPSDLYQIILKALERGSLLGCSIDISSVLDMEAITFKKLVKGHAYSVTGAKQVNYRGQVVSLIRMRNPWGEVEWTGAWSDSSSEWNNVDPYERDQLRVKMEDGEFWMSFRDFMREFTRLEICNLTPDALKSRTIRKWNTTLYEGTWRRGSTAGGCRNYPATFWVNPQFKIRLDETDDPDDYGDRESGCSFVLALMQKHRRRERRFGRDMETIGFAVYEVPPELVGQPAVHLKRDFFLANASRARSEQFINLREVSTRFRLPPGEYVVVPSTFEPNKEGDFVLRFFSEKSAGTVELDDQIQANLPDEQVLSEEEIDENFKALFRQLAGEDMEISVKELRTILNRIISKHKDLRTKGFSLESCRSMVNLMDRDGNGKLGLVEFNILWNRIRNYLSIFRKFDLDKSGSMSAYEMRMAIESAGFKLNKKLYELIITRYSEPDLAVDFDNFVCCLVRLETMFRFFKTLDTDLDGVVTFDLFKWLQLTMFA
Assay Procedure: Inhibition of human mu-calpain
Recorded Metric: IC50 (µM)

Compound Structure | Units Text | Measured Number
Cc1c(C(=O)N[C@@H](Cc2ccccc2)C(=O)C(=O)NCc2ccc(F)cc2)[nH]c2ccccc2c1=O | µM | 5.63

P = COc1ccc(CNC(=O)C(=O)[C@H](Cc2ccccc2)NC(=O)c2nc3ccccc3c(O)c2C)cc1
Q = CCNC(=O)C(=O)[C@H](Cc1ccccc1)NC(=O)c1nc2ccccc2c(O)c1C
Please indicate which item has the smaller measured IC50: P versus Q Please respond with the label that marks your chosen entry.
P

----------
Assay System: Calpain-1 catalytic subunit (Homo sapiens)
Assay Procedure: Inhibition of human mu-calpain
Recorded Metric: IC50 (µM)

Compound Structure | Units Text | IC50
Cc1c(C(=O)N[C@@H](Cc2ccccc2)C(=O)C(=O)NCCc2ccccn2)[nH]c2ccccc2c1=O | µM | 6.28
Cc1c(C(=O)N[C@@H](Cc2ccccc2)C(=O)C(N)=O)nc2ccccc2c1O | µM | 0.71
Cc1c(C(=O)N[C@@H](Cc2ccccc2)C(=O)C(N)=O)oc2ccccc2c1=O | µM | 0.04
COc1ccc(CCNC(=O)C(=O)[C@H](Cc2ccccc2)NC(=O)c2[nH]c3ccccc3c(=O)c2C)cc1 | µM | 0.73
Cc1c(C(=O)N[C@@H](Cc2ccccc2)C(=O)C(=O)NCc2ccccn2)nc2ccccc2c1O | µM | 7.72
Cc1c(C(=O)N[C@@H](Cc2ccccc2)C(=O)C(=O)NCCc2ccccc2)nc2ccccc2c1O | µM | 3.71
Cc1c(C(=O)N[C@@H](Cc2ccccc2)C(=O)C(=O)NCc2ccccc2)[nH]c2ccccc2c1=O | µM | 5.01

I = COc1ccc(CNC(=O)C(=O)[C@H](Cc2ccccc2)NC(=O)c2[nH]c3ccccc3c(=O)c2C)cc1OC
II = CNC(=O)C(=O)[C@H](Cc1ccccc1)NC(=O)c1[nH]c2ccccc2c(=O)c1C
Could you check which of I and II has a smaller value for IC50? Kindly state the label of the option you pick.
I
(I: 1.78 µM, II: 8.62 µM)
